These data points were gathered from patent US20240218057A1.

Biological target: T1, SARS-COV-2 RBD (SARS-COV-2, UniProt P0DTC2 319-539)
T1 construct: also called WT RBD
Test: ELISA, RBD coated on plate
MEASURED METRIC: EC50 (ng/mL)
Give the value in ng/mL but do not write ng/mL after it.

binder="C929 (antibody, V domains shown) VH: EVQLVESGGGLIQPGGSLRLSCAASGFTVSSNYMTWVRQAPGKGLEWVSVIYSGGTTYYADSVKGRFTISRDNSKNTLYLQMNSLRAEDTAVYYCARDLVVWGMDVWGQGTTVTVSS VL: DIQLTQSPSFLSASVGDRVTITCRASQGISSYLAWYQQKPGKAPKLLIYAASTLQSGVPSRFSGSGSGTEFTLTISSLQPEDFATYYCQLLNSYPYTFGQGTKLEIK" unit_annotation=ng/mL test_result=2.07
binder="C998 (antibody, V domains shown) VH: QVQLVQSGAEVKKPGASVKVSCKTSGYTFISYYIHWVRQAPGQGLEWMGIINPDGDNTNYAQKFQGRVTMTRDTSTSTVYMELSSLRFEDTAVYYCARGGAIPALRTAFDIWGQGTMVTVSS VL: DIQMTQSPSTLSASVGDRVTITCRASQSISNWLAWYQQKPGKAPKLLIYKASSLESGVPSRFSGSGSGTEFTLTISSLQPDDFATYYCQEYNSYYFGQGTKLEIK" unit_annotation=ng/mL test_result=2.51
binder="C930 (antibody, V domains shown) VH: EVQLVESGGGLFQPGGSLRLACAASGITVSSNYMSWVRQPPGKGLEWVSVIYAGGSTFYADSVKGRLTISRDNSKNTLYLQINSLRAEDTAVYYCARDLVVWGMDVWGQGTTVTVSS VL: DIQLTQSPSFLSASVGDRVTITCRASQGISSYLAWYQQKPGKAPKLLIYAASTLQSGVPSRFSGSGSGTEFTLTISSLQPEDFATYYCQQLNTYPYTFGQGTKLEIK" unit_annotation=ng/mL test_result=1.24

Pending binder:
Lookup result for C926 (antibody, V domains shown) VH: QVQLVESGGGVVQPGRSLRLSCAASGFGLITYSMHWVRQAPGKGLEWVGLISFDGNTTYYADSVRGRFTISRDNLANILYLQMNSLRPDDTALYYCARDKRGVIRGLLNFWGQGSLVTVSS VL: DIVMTQSPDSLAVSLGERATINCKSSQSLLPSSNSNNYLAWYQQKSGQPPNLLIYWASTRESGVPDRFSGSGSETDFSLTISNLQAEDVAVYYCQQYYNTPHTFGGGTKVEI ; measured EC50: 4.72
